biological target: recombinant human insulin-regulated aminopeptidase (IRAP), secreted soluble form (human) (UniProt Q9UIQ6); test: enzyme inhibition assay
measured-parameter: Ki (nM)

> print(dat)
                            binder  uom  numeric.result
1  VYPWT [peptide inhibitor VYPWT]   nM              98
